- Assay Text: Relative binding affinity to estrogen receptor relative to estradiol
Measurement Type: RBA (%)
Numbers only, in %.

Reference set, count: 2
# Chemical Structure, Measured Value
measured = [
    ("Oc1ccc(-c2cc(-c3ccc(O)cc3)n(-c3ccccc3)n2)cc1", 0.03),
    ("CCc1c(-c2ccc(O)cc2)nn(-c2ccccc2)c1-c1ccc(O)cc1", 14),
]

The record that follows has no RBA shown yet.
Task: Could you please provide reported RBA for Oc1ccc(-c2cc(-c3ccc(O)cc3)[nH]n2)cc1 ? Thanks!
Output: 0.009

###

- System Tested: UniProtKB P03372
- Sequence (whole entry): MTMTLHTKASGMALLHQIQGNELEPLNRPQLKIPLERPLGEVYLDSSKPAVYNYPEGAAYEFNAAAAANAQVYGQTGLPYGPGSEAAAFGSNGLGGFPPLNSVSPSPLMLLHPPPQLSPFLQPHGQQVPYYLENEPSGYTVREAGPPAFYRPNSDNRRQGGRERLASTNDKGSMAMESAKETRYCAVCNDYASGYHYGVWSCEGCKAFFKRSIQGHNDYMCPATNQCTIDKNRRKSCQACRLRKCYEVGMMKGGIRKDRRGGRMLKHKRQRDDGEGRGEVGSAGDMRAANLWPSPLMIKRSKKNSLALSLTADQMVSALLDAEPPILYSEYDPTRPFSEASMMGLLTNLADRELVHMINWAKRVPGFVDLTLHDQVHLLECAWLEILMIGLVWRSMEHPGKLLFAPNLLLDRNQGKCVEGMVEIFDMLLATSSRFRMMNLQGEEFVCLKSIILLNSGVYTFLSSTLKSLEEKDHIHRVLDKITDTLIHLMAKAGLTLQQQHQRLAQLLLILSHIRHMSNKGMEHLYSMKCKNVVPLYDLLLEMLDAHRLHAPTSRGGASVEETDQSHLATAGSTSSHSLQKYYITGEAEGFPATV
- Assay Text: Ratio of estradiol IC50 to compound IC50 for ERalpha receptor by relative binding affinity assay
Measurement Type: Ratio IC50
Answers are plain numbers.

Reference set, count: 5
# Chemical Structure, Measured Value
data = [
    ("Cc1cc(C)c(B(Nc2ccc(O)cc2)c2c(C)cc(C)cc2C)c(C)c1", 0.013),
    ("CCCCCN(B(c1c(C)cc(C)cc1C)c1c(C)cc(C)cc1C)c1ccc(O)cc1", 0.16),
    ("Cc1cc(C)c(B(c2c(C)cc(C)cc2C)N(CC(F)(F)F)c2ccc(O)cc2)c(C)c1", 2.2),
    ("Cc1cccc(C)c1B(c1c(C)cccc1C)N(CC(F)(F)F)c1ccc(O)cc1", 10),
    ("Cc1cccc(C)c1B(c1c(C)cccc1C)N(C)c1ccc(O)cc1", 23),
]

List the reported Ratio IC50 of each compound below.
1. CCN(B(c1c(C)cc(C)cc1C)c1c(C)cc(C)cc1C)c1ccc(O)cc1
2. Cc1cc(C)c(B(c2c(C)cc(C)cc2C)N(C)c2ccc(O)cc2)c(C)c1

Output:
1: 1.3; 2: 1.3

Source: ChEMBL document CHEMBL1811782
